Experimental Target: T1, Flag-PTHR1-YFP (parathyroid hormone receptor 1) expressed in transfected HEK293T cells (human, UniProt Q03431 27-593)
T1 sequence (looked up): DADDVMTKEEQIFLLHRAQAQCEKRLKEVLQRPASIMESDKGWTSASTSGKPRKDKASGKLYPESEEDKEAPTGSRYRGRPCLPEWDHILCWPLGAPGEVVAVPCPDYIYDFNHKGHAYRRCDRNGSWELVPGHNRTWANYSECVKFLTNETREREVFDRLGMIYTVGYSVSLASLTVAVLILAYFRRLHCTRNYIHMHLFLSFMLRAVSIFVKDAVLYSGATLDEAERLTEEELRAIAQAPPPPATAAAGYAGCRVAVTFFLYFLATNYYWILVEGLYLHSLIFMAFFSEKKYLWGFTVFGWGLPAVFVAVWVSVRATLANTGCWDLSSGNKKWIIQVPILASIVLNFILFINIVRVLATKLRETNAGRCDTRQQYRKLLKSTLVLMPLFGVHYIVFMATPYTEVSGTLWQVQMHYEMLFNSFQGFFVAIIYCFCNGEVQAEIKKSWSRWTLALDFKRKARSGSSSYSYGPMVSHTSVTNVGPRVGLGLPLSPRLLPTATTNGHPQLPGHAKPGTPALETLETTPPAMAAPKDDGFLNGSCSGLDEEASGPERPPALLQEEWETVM
Assay Overview: cell-based or functional assay
Endpoint Name: arrestin 1, plate 9: -log10EC50

Binder: AVAEIQLMHQRAKWKLELELKAFLDQILKDVL [R2-36]
Result: -8.83 -log10EC50
//
Binder: SVMMIQVMHDLAKIRAEYELREMLLRLLEEIF [R2-8]
Result: -8.43 -log10EC50
//
Binder: AVAEIQLMHQRAKWRLEIELLKKLKEILKDVY [R2-34]
Result: -8.56 -log10EC50
